The measured values listed here are drawn from paper PMC12529666.

assayed.system: AGO2 T357M (Homo sapiens, UniProt Q9UKV8 1-859, T357M;S387D;S824A;S828D;S831D;S834A)
Sequence (Q9UKV8 whole entry T357M/S387D/S824A/S828D/S831D/S834A): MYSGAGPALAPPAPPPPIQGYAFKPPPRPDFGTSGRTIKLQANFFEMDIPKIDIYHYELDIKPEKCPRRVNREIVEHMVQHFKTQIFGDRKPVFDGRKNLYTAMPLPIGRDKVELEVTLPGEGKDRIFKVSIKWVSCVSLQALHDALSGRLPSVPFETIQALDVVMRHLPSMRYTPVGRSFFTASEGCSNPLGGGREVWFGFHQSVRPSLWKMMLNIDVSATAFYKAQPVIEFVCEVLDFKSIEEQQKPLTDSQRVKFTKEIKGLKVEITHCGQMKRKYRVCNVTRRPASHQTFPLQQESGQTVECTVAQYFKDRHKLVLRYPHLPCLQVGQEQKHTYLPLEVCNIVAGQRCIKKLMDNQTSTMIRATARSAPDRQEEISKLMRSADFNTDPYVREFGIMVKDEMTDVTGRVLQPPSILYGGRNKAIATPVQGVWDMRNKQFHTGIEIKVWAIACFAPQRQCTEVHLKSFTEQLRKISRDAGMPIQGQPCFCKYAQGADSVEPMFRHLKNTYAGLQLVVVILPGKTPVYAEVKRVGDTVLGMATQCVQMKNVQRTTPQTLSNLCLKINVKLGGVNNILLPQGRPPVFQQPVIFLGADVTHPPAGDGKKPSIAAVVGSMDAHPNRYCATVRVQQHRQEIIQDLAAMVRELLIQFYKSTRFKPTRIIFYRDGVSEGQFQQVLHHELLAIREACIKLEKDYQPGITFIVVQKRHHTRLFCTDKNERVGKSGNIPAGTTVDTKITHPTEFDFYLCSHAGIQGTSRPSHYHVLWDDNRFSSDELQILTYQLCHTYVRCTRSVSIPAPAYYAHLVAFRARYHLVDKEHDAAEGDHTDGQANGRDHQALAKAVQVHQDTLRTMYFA
assay.name: RNA Bind-n-Seq (nitrocellulose filter binding and sequencing); miR-122 guide loaded in AGO2; 60 min incubation; 30 mM Tris pH 8.0, 100 mM potassium acetate, 2 mM magnesium acetate, 0.5 mM TCEP, 0.005% NP-40, 0.01 mg/ml yeast tRNA; 3 nM AGO2-miR-122, 100 nM RNA library; 60; high values mean tight binding
measurement.parameters: protein: recombinant; tags: His6 (N-terminal, pFastBac HTA)
Provide the recorded binding signal for the entries that follow.

Q) Please report the recorded binding signal for GTGCTTTG (ssRNA, constant regions annealed to DNA blockers; guide miR-122 5' phosphate) RNA 1: GAGUUCUACAGUCCGACGAUCCCAACGUGCUUUGCACCUGGAAUUCUCGGGUGCCAA RNA 2: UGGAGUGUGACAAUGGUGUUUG DNA 1: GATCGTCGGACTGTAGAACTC DNA 2: TTGGCACCCGAGAATTCCA .
A) 0.623 fold enrichment over input

Q) Please report the recorded binding signal for GTACTCCG (ssRNA, constant regions annealed to DNA blockers; guide miR-122 5' phosphate) RNA 1: GAGUUCUACAGUCCGACGAUCCCAACGUACUCCGCACCUGGAAUUCUCGGGUGCCAA RNA 2: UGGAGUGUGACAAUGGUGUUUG DNA 1: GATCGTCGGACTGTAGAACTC DNA 2: TTGGCACCCGAGAATTCCA .
A) 0.519 fold enrichment over input

Q) Please report the recorded binding signal for GTGTCCCG (ssRNA, constant regions annealed to DNA blockers; guide miR-122 5' phosphate) RNA 1: GAGUUCUACAGUCCGACGAUCCCAACGUGUCCCGCACCUGGAAUUCUCGGGUGCCAA RNA 2: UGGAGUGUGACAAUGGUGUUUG DNA 1: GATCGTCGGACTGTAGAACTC DNA 2: TTGGCACCCGAGAATTCCA .
A) 0.447 fold enrichment over input

Q) Please report the recorded binding signal for ACACCTTG (ssRNA, constant regions annealed to DNA blockers; guide miR-122 5' phosphate) RNA 1: GAGUUCUACAGUCCGACGAUCCCAACACACCUUGCACCUGGAAUUCUCGGGUGCCAA RNA 2: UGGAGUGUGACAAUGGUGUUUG DNA 1: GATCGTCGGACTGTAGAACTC DNA 2: TTGGCACCCGAGAATTCCA .
A) 0.452 fold enrichment over input

Q) Please report the recorded binding signal for GTGCCCTA (ssRNA, constant regions annealed to DNA blockers; guide miR-122 5' phosphate) RNA 1: GAGUUCUACAGUCCGACGAUCCCAACGUGCCCUACACCUGGAAUUCUCGGGUGCCAA RNA 2: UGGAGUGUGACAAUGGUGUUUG DNA 1: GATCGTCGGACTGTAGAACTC DNA 2: TTGGCACCCGAGAATTCCA .
A) 0.663 fold enrichment over input

Q) Please report the recorded binding signal for ACGCTCCA (ssRNA, constant regions annealed to DNA blockers; guide miR-122 5' phosphate) RNA 1: GAGUUCUACAGUCCGACGAUCCCAACACGCUCCACACCUGGAAUUCUCGGGUGCCAA RNA 2: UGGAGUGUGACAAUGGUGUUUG DNA 1: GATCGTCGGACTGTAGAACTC DNA 2: TTGGCACCCGAGAATTCCA .
A) 2.94 fold enrichment over input

Q) Please report the recorded binding signal for ATATTTCA (ssRNA, constant regions annealed to DNA blockers; guide miR-122 5' phosphate) RNA 1: GAGUUCUACAGUCCGACGAUCCCAACAUAUUUCACACCUGGAAUUCUCGGGUGCCAA RNA 2: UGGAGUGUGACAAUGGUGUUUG DNA 1: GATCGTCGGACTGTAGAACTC DNA 2: TTGGCACCCGAGAATTCCA .
A) 0.697 fold enrichment over input

Q) Please report the recorded binding signal for GTATTTTA (ssRNA, constant regions annealed to DNA blockers; guide miR-122 5' phosphate) RNA 1: GAGUUCUACAGUCCGACGAUCCCAACGUAUUUUACACCUGGAAUUCUCGGGUGCCAA RNA 2: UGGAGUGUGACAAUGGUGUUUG DNA 1: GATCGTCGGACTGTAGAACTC DNA 2: TTGGCACCCGAGAATTCCA .
A) 0.617 fold enrichment over input

Q) Please report the recorded binding signal for ACGCTTCA (ssRNA, constant regions annealed to DNA blockers; guide miR-122 5' phosphate) RNA 1: GAGUUCUACAGUCCGACGAUCCCAACACGCUUCACACCUGGAAUUCUCGGGUGCCAA RNA 2: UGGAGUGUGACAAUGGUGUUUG DNA 1: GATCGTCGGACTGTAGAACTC DNA 2: TTGGCACCCGAGAATTCCA .
A) 0.624 fold enrichment over input

Q) Please report the recorded binding signal for GCGCTTTG (ssRNA, constant regions annealed to DNA blockers; guide miR-122 5' phosphate) RNA 1: GAGUUCUACAGUCCGACGAUCCCAACGCGCUUUGCACCUGGAAUUCUCGGGUGCCAA RNA 2: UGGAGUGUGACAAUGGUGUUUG DNA 1: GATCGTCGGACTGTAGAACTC DNA 2: TTGGCACCCGAGAATTCCA .
A) 0.462 fold enrichment over input

Q) Please report the recorded binding signal for ACATCCCG (ssRNA, constant regions annealed to DNA blockers; guide miR-122 5' phosphate) RNA 1: GAGUUCUACAGUCCGACGAUCCCAACACAUCCCGCACCUGGAAUUCUCGGGUGCCAA RNA 2: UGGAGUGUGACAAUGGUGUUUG DNA 1: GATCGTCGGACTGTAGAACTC DNA 2: TTGGCACCCGAGAATTCCA .
A) 0.471 fold enrichment over input

Q) Please report the recorded binding signal for GCACTTCA (ssRNA, constant regions annealed to DNA blockers; guide miR-122 5' phosphate) RNA 1: GAGUUCUACAGUCCGACGAUCCCAACGCACUUCACACCUGGAAUUCUCGGGUGCCAA RNA 2: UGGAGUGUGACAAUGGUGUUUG DNA 1: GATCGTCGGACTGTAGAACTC DNA 2: TTGGCACCCGAGAATTCCA .
A) 0.655 fold enrichment over input

Q) Please report the recorded binding signal for ACGCCCCA (ssRNA, constant regions annealed to DNA blockers; guide miR-122 5' phosphate) RNA 1: GAGUUCUACAGUCCGACGAUCCCAACACGCCCCACACCUGGAAUUCUCGGGUGCCAA RNA 2: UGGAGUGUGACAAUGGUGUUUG DNA 1: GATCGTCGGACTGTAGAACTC DNA 2: TTGGCACCCGAGAATTCCA .
A) 0.719 fold enrichment over input

Q) Please report the recorded binding signal for GTATCTCA (ssRNA, constant regions annealed to DNA blockers; guide miR-122 5' phosphate) RNA 1: GAGUUCUACAGUCCGACGAUCCCAACGUAUCUCACACCUGGAAUUCUCGGGUGCCAA RNA 2: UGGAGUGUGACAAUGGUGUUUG DNA 1: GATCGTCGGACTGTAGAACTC DNA 2: TTGGCACCCGAGAATTCCA .
A) 0.579 fold enrichment over input

Q) Please report the recorded binding signal for GCACCCTA (ssRNA, constant regions annealed to DNA blockers; guide miR-122 5' phosphate) RNA 1: GAGUUCUACAGUCCGACGAUCCCAACGCACCCUACACCUGGAAUUCUCGGGUGCCAA RNA 2: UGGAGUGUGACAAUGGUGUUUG DNA 1: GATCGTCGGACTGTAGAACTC DNA 2: TTGGCACCCGAGAATTCCA .
A) 0.601 fold enrichment over input
